Test system: NCI-H23
Assay Procedure: NCI tumour cell line growth inhibition, 48 h
Calls of active or inactive are those of the source. Rule as the data show it: active = GI50 up to about 1.1 µM and inactive = higher.
Labels: active, inactive

compound=CNNC1=NS(=O)(=O)c2cc(C#N)c(Cl)cc2S1 class=inactive
compound=CCCSc1ccc2[nH]c(N3C(=O)/C(=C/c4ccc(O)c(OC)c4)N=C3c3ccccc3)cc2c1 class=inactive
compound=COC(=O)C1=C(C(=O)OC)C(C(=O)OC)C(C(=O)OC)=C1C(=O)OC class=inactive
compound="COC(=O)/C(=N\\N)C(C(=O)C(=O)Nc1cc(Cl)ccc1Cl)c1nc2ccc([N+](=O)[O-])cc2nc1O (stereo not given)" class=inactive
compound=COc1ccc2c(c1)[n+]([O-])c1cc(C#N)ccc1[n+]2[O-] class=active

----------
Measured GI50 of individual entries
Test system: SF-539
Assay Procedure: NCI tumour cell line growth inhibition, 48 h
Active and inactive are the calls of the source. No stated cut-off is given here; in the data, active = GI50 up to about 1.1 µM and inactive = higher. Where a SMILES comes first, the peptide text is derived from it. [ ]: non-standard residue; d: D form. The star is where a group is joined. Bn2Val = CC(C)[C@@H](C(=O)*)N(Cc1ccccc1)Cc1ccccc1; NHPiperonyl = c1cc2c(cc1CN*)OCO2; NMeV = CN[C@H](C(=O)O)C(C)C; dNMeA = CN[C@H](C)C(=O)O
Readout Name: GI50

molecule=O=C1c2ccccc2C(=O)c2c(O)c(NCCNCCO)cc(O)c21 readout_name=GI50 reported_measurement="4.93 µM (inactive)"
molecule=O=C(OCc1ccccc1)c1nc2ccccc2n1S(=O)(=O)c1ccccc1 readout_name=GI50 reported_measurement="> 100 µM (inactive)"
molecule=N=C(N)NS(=O)(=O)c1ccc(NNc2c3ccccc3nc3c(C(=O)Nc4ccc(S(=O)(=O)Nc5ncccn5)cc4)cccc23)cc1 readout_name=GI50 reported_measurement="35.4 µM (inactive)"
molecule="CC(C)[C@H](NC(=O)[C@H](C(C)C)N(Cc1ccccc1)Cc1ccccc1)C(=O)N(C)[C@H](C(=O)N1CCC[C@H]1C(=O)N(C)[C@H](C)C(=O)NCc1ccc2c(c1)OCO2)C(C)C (Bn2Val-V[NMeV]P[dNMeA]-NHPiperonyl)" readout_name=GI50 reported_measurement="3.37 µM (inactive)"
molecule=S=C(c1c[nH]c2ccccc12)N1CCN(Cc2ccccc2)CC1 readout_name=GI50 reported_measurement="18.6 µM (inactive)"

----------
System: SNB-75
Assay Procedure: NCI tumour cell line growth inhibition, 48 h
The source made the active and inactive calls. Cut-off read from the data, not from the text of the source: active = GI50 up to about 1.1 µM and inactive = higher.
Measured GI50 of individual entries
Readout Name: GI50

molecule=COC(=O)c1oc([N+](=O)[O-])c(Cl)c1Cl reported_measurement="7.78 µM (inactive)"
molecule=C[Si](C)(C)/N=C1\N2C(=NC1(C(F)(F)F)C(F)(F)F)Sc1ccccc12 reported_measurement="> 50 µM (inactive)"
molecule="CC1=Nc2ccccc2C1C(Cc1ccccc1N)c1c(C)[nH]c2ccccc12 (stereo unspecified)" reported_measurement="17.5 µM (inactive)"
molecule=O=C(Nc1ccc2nc(O)n[n+]([O-])c2c1)C(F)(F)F reported_measurement="> 100 µM (inactive)"
molecule=CSC1=C(C(=O)Nc2ccccc2)C(N)=NC1=O reported_measurement="> 100 µM (inactive)"
molecule=CCOC(=O)c1cccc(/N=N/c2nc[nH]c2/C=C/C(=O)OC)c1 reported_measurement="18.5 µM (inactive)"
molecule=Oc1cc(CN2CCOCCOCCOCCOCC2)c(O)cc1CN1CCOCCOCCOCCOCC1 reported_measurement="> 78.7 µM (inactive)"
molecule=COc1ccc2[nH]c3c(c2c1)CCN(C)CC3 reported_measurement="> 100 µM (inactive)"
molecule=O=c1[nH]n(Cc2ccccc2Cl)c2ccccc12 reported_measurement="45.5 µM (inactive)"
molecule=O=C(O)CSc1nnc(/C=C/c2ccccc2)[nH]1 reported_measurement="> 100 µM (inactive)"
molecule="OC1(c2ccccc2)CC2CCC(C1)N2CCCC(O)(c1ccccc1)c1ccccc1 (stereo unspecified)" reported_measurement="11.2 µM (inactive)"

----------
Measured GI50 of individual entries
Tested on: HCC 2998
Assay Procedure: NCI tumour cell line growth inhibition, 48 h
Active and inactive are the calls of the source. Rule as the data show it: active = GI50 up to about 1.1 µM and inactive = higher.
Readout Name: GI50

compound=Oc1cc(CN2CCOCCOCCOCCOCC2)c(O)cc1CN1CCOCCOCCOCCOCC1 tgt="HCC 2998" readout_name=GI50 reported_measurement="> 100 µM (inactive)"
compound="CC1=CC(=O)CC(C)(C)C1/C=C/C(C)=C/C=C/C(C)=C/C=C/C=C(C)/C=C/C=C(C)/C=C/C1=C(C)CC(O)CC1(C)C (stereo not given)" tgt="HCC 2998" readout_name=GI50 reported_measurement="23.8 µM (inactive)"
compound=Fc1ccc(-c2sc(-c3cccs3)cc2Cc2cccs2)cc1 tgt="HCC 2998" readout_name=GI50 reported_measurement="> 100 µM (inactive)"
compound=CC(=O)OC1=NN=C2COC(c3ccccc3OC(C)=O)=NN2C1 tgt="HCC 2998" readout_name=GI50 reported_measurement="> 50 µM (inactive)"
compound="CC[N+]1(C)CCC(O)(c2ccc(C)cc2)C(C(=O)c2ccc(C)cc2)C1 (stereo not given)" tgt="HCC 2998" readout_name=GI50 reported_measurement="> 100 µM (inactive)"

----------
Tested on: M14
Assay Procedure: NCI tumour cell line growth inhibition, 48 h
Activity calls are given as the source filed them. No stated cut-off is given here; in the data, active = GI50 up to about 1.1 µM and inactive = higher.
Labels: active, inactive

molecule="N#CC(NCCc1ccccc1)c1ccc(C(C#N)NCCc2ccccc2)cc1 (stereo not given)" class=inactive
molecule="O=C1CSC(/C=C/c2ccccc2)N1c1ccc(-c2ccc(-n3c(-c4ccccc4)nc4ccccc4c3=O)cc2)cc1 (stereo not given)" class=inactive
molecule=CCOC(=O)CC[C@H](N)C(=O)N[C@H](Cc1ccc(N(CCCl)CCCl)cc1)C(=O)OCC class=inactive
molecule=O=c1[nH]/c(=C/c2ccc(OCc3ccccc3)cn2)c(=O)[nH]/c1=C/c1ccccc1 class=active
molecule=Cc1cc(C)c(S(=O)(=O)ONC(=O)OC(C)(C)C)c(C)c1 class=inactive

----------
Test system: OVCAR-3
Assay Procedure: NCI tumour cell line growth inhibition, 48 h
Calls of active or inactive are those of the source. Cut-off read from the data, not from the text of the source: active = GI50 up to about 1.1 µM and inactive = higher.
Readout Name: GI50

molecule=O=C(O)C(SC1=NC(=O)C2(NN1)c1ccccc1-c1ccccc12)SC1=NC(=O)C2(NN1)c1ccccc1-c1ccccc12 reported_measurement="> 10 µM (inactive)"
molecule="N#Cc1cccc(C2C(=O)c3ccc(C(=O)c4ccc5c(c4)C(=O)N(c4ccc(Oc6ccc(N7C(=O)c8ccc(C(=O)c9ccc%10c(c9)C(=O)N(c9cccc(C#N)c9)C%10=O)cc8C7=O)cc6)cc4)C5=O)cc3C2=O)c1 (stereo not drawn)" reported_measurement="> 100 µM (inactive)"
molecule=O=C(Nc1nnc(-c2c(Cl)c(Cl)c(Cl)c(Cl)c2-c2nc3cc(C(=O)c4ccccc4)ccc3[nH]2)o1)c1ccc(Cl)cc1 reported_measurement="13.8 µM (inactive)"
molecule="CCOC(=O)CCC(NC(=O)c1ccc(OCc2nc3cc(C(F)(F)F)ccc3nc2-c2ccccc2)cc1)C(=O)OCC (stereo not drawn)" reported_measurement="79.1 µM (inactive)"
molecule=O=C(C(=O)N1CCc2ccccc21)c1c[nH]c2ccccc12 reported_measurement="> 10 µM (inactive)"
molecule="CCCCCCCCCCCCCCCCP(=O)(O)OCC(N)C(=O)O (stereo not drawn)" reported_measurement="23.6 µM (inactive)"
molecule=Cc1c(C#N)c(=O)[nH]c(=O)n1CCN1CCN(C(=O)NCCCCCCNC(=O)N2CCN(CCn3c(C)c(C#N)c(=O)[nH]c3=O)CC2)CC1 reported_measurement="> 100 µM (inactive)"
molecule=O=C(Nn1c(-c2ccccc2)nc2ccccc2c1=O)c1ccc(Cl)cc1 reported_measurement="91.6 µM (inactive)"

----------
System: MDA-MB-435
Assay Procedure: NCI tumour cell line growth inhibition, 48 h
The source made the active and inactive calls. Rule as the data show it: active = GI50 up to about 1.1 µM and inactive = higher.
Labels: active, inactive

compound=O=C(N/N=C\c1c(O)ccc2ccccc12)c1ccncc1 tgt=MDA-MB-435 class=inactive
compound=COc1cccc(C=C2N=C(c3ccccc3)N(n3c(-c4ccccc4)nc4ccccc4c3=O)C2=O)c1 tgt=MDA-MB-435 class=inactive
compound=COC(=O)CC(SCCO)SCCO tgt=MDA-MB-435 class=inactive
compound=COc1cc2ccccc2oc1=O tgt=MDA-MB-435 class=inactive
compound="COc1cccc(N2C(=O)C3c4[nH]c5ccccc5c4C4c5ccccc5CCC4C3C2=O)c1 (stereo unspecified)" tgt=MDA-MB-435 class=inactive
compound=CCOP(=O)(OCC)/C(C#N)=C/c1c(C)[nH]c2ccccc12 tgt=MDA-MB-435 class=inactive
compound=C[N+](C)([O-])CCCNc1ccnc2cccc([N+](=O)[O-])c12 tgt=MDA-MB-435 class=inactive
compound=O=c1[nH]n(Cc2ccccc2Cl)c2ccccc12 tgt=MDA-MB-435 class=inactive
compound="Nc1nc(O)c2[nH]nnc2n1 [8-AZAGUANINE]" tgt=MDA-MB-435 class=active
compound="CC1(C)OC2COC(c3n[nH]c4c(=O)[nH]c(=O)[nH]c34)C2O1 (stereo unspecified)" tgt=MDA-MB-435 class=inactive
compound="CCOC(=O)C(C#N)C1=CC(=O)C(=O)c2ccc(OC)cc21 (stereo unspecified)" tgt=MDA-MB-435 class=inactive
